The measurements presented in this section are drawn from PubChem BioAssay AID1159580.

- Assay comment: chemical genetic growth profiling, strain panel (AID 1159580);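 further: tested at 20 µM; growth read once vehicle control cultures reached saturation at 30 °C; 1 = growth at the plate median or of vehicle wells; lower values mean less growth of the strain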
- Reported conditions: S. cerevisiae deletion strains, growth OD, locus YLR342W, strain FKS1 (second series), active compounds read low
Out of some 5,500 compounds screened, about 2,000 (36%) were called active. Not shown: some 18% with an inconclusive outcome. This is one part of the list.
Reported normalized growth values are given for each entry in this list.
Write the value as a bare number.

>>> value_observed("CC(=O)O[C@@H]1CC2C(C)(C)[C@H](O)CC[C@]2(C)C2CC[C@@]3(C)[C@H](c4ccoc4)OC(=O)[C@H]4O[C@]43[C@@]21C (some centres not stated)")
1.02
>>> value_observed("NC1(C(=O)O)CCCC1")
1
>>> value_observed("OC[C@H]1O[C@@H](n2cnc3c(NCc4ccco4)ncnc32)[C@H](O)[C@@H]1O")
1.01
>>> value_observed("NC(C(=O)O)C(O)C(=O)O (configuration not stated)")
1
>>> value_observed("C[C@]12CCC3c4ccc(OC(=O)c5ccccc5)cc4CCC3C1CCC2=O (some centres not stated)")
1.01

Per the records, this compound ( `NCCCC(=O)O` ) has normalized growth equal to 0.994

Lab book: normalized growth of COc1ccc2c(c1)OCC(Cc1ccc(OC)c(OC(C)=O)c1)C2=O (configuration not stated) noted as 0.993

Entry `N[C@@H](C(=O)O)[C@@H](O)[C@H](O)[C@H](O)CO` — recorded normalized growth = 1.01

###

- Assay comment: chemical genetic growth profiling, strain panel (AID 1159580)
- Reported conditions: S. cerevisiae deletion strains, growth OD, locus YPL153C, strain RAD53, active compounds read low
The whole screen tested about 5,500 compounds, of which about 2,000 (36%) were called active. Roughly 18% stayed inconclusive and do not appear here. Some of the results follow.
Metric name: normalized growth

Some solved entries appear below for comparison.
>>> value_observed("N#Cc1cccc(CSc2nc3ccc(C(F)(F)F)cc3[nH]2)c1")
"0.899 (inactive)"
>>> value_observed("O=S(=O)(NCc1cc(Cl)cc(Cl)c1)c1cc(C(F)(F)F)cc(C(F)(F)F)c1")
"0.912 (inactive)"
>>> value_observed("O=S(=O)(NCc1ccc(C(F)(F)F)cc1)c1cc(Br)c(Br)s1")
"0.716 (inactive)"
>>> value_observed("O=S(=O)(Nc1csc(C(F)(F)F)c1-c1ccccc1)c1cc(Br)c(Br)s1")
"0.88 (inactive)"

The value of normalized growth measured for the molecule `Cn1nccc1-c1cc(Cl)cc(Cl)c1O` turned out to be 0.718 (inactive)

###

- Assay comment: chemical genetic growth profiling, strain panel (AID 1159580)
- Reported conditions: S. cerevisiae deletion strains, growth OD, locus YIL073C, strain SPO22, active compounds read low
Among all 5,500 compounds or so, about 2,000 (36%) were called active. Another 18% or so got no clear call; they are omitted. The list shows a part of the results.
Quick reference: normalized growth of the listed items.
# respond with the number and nothing more

Check out these entries, answers already filled in.
>>> value_observed("FC(F)(F)c1cccc(N2CCNCC2)c1")
1.08
>>> value_observed("COC(=O)/C(C)=C\\CC12OC(C)(C)C3CC(C=C4C(=O)c5c(OC)c6c(c(CC=C(C)C)c5OC431)OC(C)(CCC=C(C)C)C=C6)C2=O (stereo not drawn)")
0.878

Kindly consider the entry below.
Per the record, `CN(C)C(=O)Oc1ccc[n+](C)c1` has normalized growth of 1.06

###

- Assay comment: chemical genetic growth profiling, strain panel (AID 1159580)
- Reported conditions: S. cerevisiae deletion strains, growth OD, locus YBL105C, strain PKC1, active compounds read low
The whole screen tested about 5,500 compounds, of which about 2,000 (36%) were called active. Not shown: some 18% with an inconclusive outcome. The list shows a part of the results.
Metric name: normalized growth
Answer as a number with no unit attached.

// normalized growth lookup, compound = `N/C(=N/O)c1ccc(Oc2ccc(C3SCCS3)cc2)c([N+](=O)[O-])c1` , result: 0.992

Sure, the documented normalized growth for `CC1=CC(=O)N(c2ccc(OC(F)(F)F)cc2)C1=O` is 0.873

###

normalized growth reference
- Assay comment: chemical genetic growth profiling, strain panel (AID 1159580)
- Reported conditions: S. cerevisiae deletion strains, growth OD, locus YGR229C, strain SMI1, active compounds read low
In all, about 5,500 compounds went through this assay and about 2,000 (36%) were called active. Another 18% or so got no clear call; they are omitted. The list shows a part of the results.
The response must contain the number and no unit.

GET /value?item= CN=C(N)NCCCC(N)C(=O)O (stereo unspecified) &field=normalized growth returns 1.05

###

- Assay comment: chemical genetic growth profiling, strain panel (AID 1159580)
- Reported conditions: S. cerevisiae deletion strains, growth OD, locus YDR052C, strain DBF4, active compounds read low
The whole screen tested about 5,500 compounds, of which about 2,000 (36%) were called active. Inconclusive results (about 18%) are left out. The list shows a part of the results.
Metric name: normalized growth

Solved entries (count: 2):
>>> value_observed("Cc1ccc(S(=O)(=O)Nc2nc(-c3ccc(C)c(Cl)c3)c(C)s2)cc1")
"0.983 (inactive)"
>>> value_observed("N#CC(C#N)=Cc1c(-c2ccccc2Cl)[nH]c2ccccc12")
"0.98 (inactive)"

Please look at the following molecule next.
The value of normalized growth measured for the molecule Cc1ccc(NC(=S)C(C#N)C(=O)N2CCOCC2)c(C)c1 (stereo not drawn) turned out to be 0.998 (inactive)

###

- Assay comment: chemical genetic growth profiling, strain panel (AID 1159580);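 further: tested at 20 µM; growth read once vehicle control cultures reached saturation at 30 °C; 1 = growth at the plate median or of vehicle wells; lower values mean less growth of the strain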
- Reported conditions: S. cerevisiae deletion strains, growth OD, locus YNR049C, strain mso1, active compounds read low
Out of some 5,500 compounds screened, about 2,000 (36%) were called active. Another 18% or so got no clear call; they are omitted. The list shows a part of the results.
Measured normalized growth, listed per entry for reference.
Just the number, please.

A selection of reference data follows.
>>> value_observed("CN(C)CCC(c1ccccc1)c1ccccn1 (stereo unspecified)")
1.02
>>> value_observed("Cc1cccc(C)c1NC(=O)C1CCCCN1C (stereo unspecified)")
0.99
>>> value_observed("CC1(C)N([O-])[N+](=O)C1(C)Br (stereo unspecified)")
0.99

get_value(item= O=C(O)CCC1NCC2CC1CN1CCCCC21 (stereo unspecified) , readout=normalized growth) returns 0.971

According to the records, this compound `COc1cc(C)c2c(=O)cc(-c3ccccc3)oc2c1` displays normalized growth of 0.924

// normalized growth value for CC(C)=CC1C(C(=O)OCc2cccc(Oc3ccccc3)c2)C1(C)C (stereo unspecified) : 1.01

###

# reported normalized growth; entries follow
- Assay comment: chemical genetic growth profiling, strain panel (AID 1159580);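 further: tested at 20 µM; growth read once vehicle control cultures reached saturation at 30 °C; 1 = growth at the plate median or of vehicle wells; lower values mean less growth of the strain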
- Reported conditions: S. cerevisiae deletion strains, growth OD, locus YKL160W, strain elf1, active compounds read low
The whole screen tested about 5,500 compounds, of which about 2,000 (36%) were called active. Roughly 18% stayed inconclusive and do not appear here. The list shows a part of the results.

Look over these answered cases.
>>> value_observed("O=C1CCCN1CC#CCN1CCCC1")
"1.02 (inactive)"
>>> value_observed("C[C@H]1C[C@@H](O)[C@]2(O)[C@@]13CC(=O)OC[C@@]2(C)[C@](C)(O)C(=O)C3")
"1.02 (inactive)"
>>> value_observed("CCCCC(=O)O[C@]1(C(=O)CO)CCC2C3CCC4=CC(=O)CC[C@]4(C)C3[C@@H](O)C[C@@]21C (stereo partly specified)")
"0.983 (inactive)"
>>> value_observed("Cc1cc(/C=C/c2ccc3cc(N(C)C)ccc3[n+]2C)c(C)n1-c1ccccc1")
"0.829 (active)"
>>> value_observed("O=C(O)COc1ccc(Cl)cc1Cl")
"0.996 (inactive)"

Okay, now this compound:
What the record says about `Clc1ccc(CO/N=C(/Cn2ccnc2)c2ccc(Cl)cc2Cl)c(Cl)c1` : normalized growth is 0.0739 (active)

###

Collected normalized growth values appear next to each entry.
- Assay comment: chemical genetic growth profiling, strain panel (AID 1159580);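 further: tested at 20 µM; growth read once vehicle control cultures reached saturation at 30 °C; 1 = growth at the plate median or of vehicle wells; lower values mean less growth of the strain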
- Reported conditions: S. cerevisiae deletion strains, growth OD, locus YLL001W, strain dnm1, active compounds read low
Among all 5,500 compounds or so, about 2,000 (36%) were called active. Roughly 18% stayed inconclusive and do not appear here. This is one part of the list. Where a SMILES comes first, the peptide text is derived from it.
The answer should be a number; do not append a unit.

Look over these answered cases.
>>> value_observed("CCC(=O)OC1[C@@H]2CC3=C4CC(=O)O[C@@H](c5ccoc5)[C@]4(C)CCC3[C@@](C)(C2=O)[C@@H](CC(=O)OC)C1(C)C (some centres undefined)")
1
>>> value_observed("Clc1ccc(C(c2ccccc2Cl)C(Cl)Cl)cc1 (centres undefined)")
0.91
>>> value_observed("O=c1cccc2n1CC1CC2CN2CCCC[C@@H]12 (some centres undefined)")
0.987
>>> value_observed("COc1cc(NS(C)(=O)=O)ccc1Cc1c2ccccc2nc2ccccc12")
0.936
>>> value_observed("C=CCS(=O)C[C@H](N)C(=O)O (some centres undefined)")
1.01

normalized growth recorded for this compound, `O=NN(CCCl)C(=O)NCCCl` , is 0.963

Lab note: `Nc1nc(F)nc2c1ncn2[C@@H]1O[C@H](COP(=O)(O)O)[C@@H](O)[C@@H]1O` gave normalized growth of 0.987

NC(C(=O)O)C(O)C(=O)O (centres undefined) has a reported normalized growth of 0.987

Lookup result for `c1ccc2c(CC3=NCCN3)cccc2c1` ; measured normalized growth: 0.986

Consider `NC(N)=NCCCCN=C(N)N` . Its measured normalized growth is 1.01

Given item CC(=O)N[C@@H](CC(=O)O)C(=O)N[C@@H](CCC(=O)O)C(=O)O (Ac-Asp-Glu-OH) , the value recorded as its normalized growth is 0.994

normalized growth measured on C[C@@H]1CC2C3CCC4=CC(=O)C=C[C@]4(C)[C@@]3(F)[C@@H](O)C[C@]2(C)[C@@]1(O)C(=O)CO (some centres undefined) = 0.911

Value of measured normalized growth for the entry `COc1ccc(-c2oc3cc(OC)c(OC)c(OC)c3c(=O)c2OC)cc1` : 0.953

Entry `CCCn1c(=O)c2[nH]c(C3CCCC3)nc2n(CCC)c1=O` , normalized growth reported as 0.986

// normalized growth value for CCC(C)C(=O)c1c(O)c(C)c2oc3c(C)c(O)c(C(=O)C(C)CC)c(O)c3c2c1O (centres undefined) : 0.98
